System: Fibroblast
Test name: Multiplex assay against human fibroblast
Assay type: toxicity, cell-based
Condition context: 24 h, 1 µM, compound concentration 1 uM, replicate 2
Non-standard residues stand in square brackets, D forms with d. Residues, ends and D or L forms follow the SMILES beside them.
Overview of reported Population Tubulin-Different-Phenotype (%) across a group of compounds:
API: value field is a number in %; no unit string.

Worked cases, answers included:
CN1CCN(c2ccc(Nc3c4ccccc4nc4ccccc34)cc2)CC1.Cl.Cl.O: 39
CC(C)C[C@@H]1NC(=O)[C@@H](C(C)C)NC(=O)[C@@H]2CCCN2C(=O)[C@@H](CC(=O)O)NC(=O)[C@@H](Cc2c[nH]c3ccccc23)NC1=O [BQ-123] (cyclo(L[dW][dD]P[dV])): 25
CC(C)C[C@H](CO)Nc1nc(S[C@@H](C)c2ccccc2)nc2nc(N)sc12 [AZD-8797]: 46

q: Form: Entry = COc1cc(C(=O)N2CC[C@@H](O)[C@@H](N)C2)cc2nc(-c3cc4ccccc4n3CC3CC3)n(C)c12.Cl | System = Fibroblast | Population Tubulin-Different-Phenotype (%) = ____
a: 79

###

Tested on: HEK-293T
Test name: Multiplex assay against HEK293T
Format: toxicity, cell-based
Condition context: human, 12 h, 10 µM, compound concentration 10 uM, replicate 2
Observation type: Population Healthy Nuclei (%)
Answer in %, number only, no unit symbol.

CCn1c(-c2nc3cc(C(=O)N4CCCC(N)C4)ccc3n2C)cc2ccccc21.Cl (stereo not given): 78
COc1c(Nc2ccc(S(C)(=O)=O)nc2C)ncnc1OC1CCN(C(=O)OC(C)C)CC1: 72
Cl.Cl.OCCOCCN1CCN(C(c2ccccc2)c2ccc(Cl)cc2)CC1 (stereo not given) [HYDROXYZINE HYDROCHLORIDE]: 73
CN1CCN(c2ccc(Nc3c4ccccc4nc4ccccc34)cc2)CC1.Cl.Cl.O: 58

q: May I ask what Population Healthy Nuclei (%) has been recorded for COc1cc(OC2CCN(C(C)=O)CC2)ccc1C(=O)N1CCC(N2C(=O)OCc3ccccc32)CC1 ?
a: 80

###

Tested on: HEK-293T
Test name: Multiplex assay against HEK293T
Type: toxicity, cell-based
Condition context: human, 48 h, 1 µM, compound concentration 1 uM, replicate 1
Observation type: Population Membrane Permeable-Phenotype (%)
Note: unit % is implicit; provide only the numeric part.

The following compounds have reported results that may help.
CC(C)(C)c1ccc(CSc2cnn(C(C)(C)C)c(=O)c2Cl)cc1: 0
OCCCNc1cc(-c2ccnc(Nc3cccc(Cl)c3)n2)ccn1: 1

q: Record request: Population Membrane Permeable-Phenotype (%) value, item COc1cc(C(=O)N2CC[C@@H](O)[C@@H](N)C2)cc2nc(-c3cc4ccccc4n3CC3CC3)n(C)c12.Cl
a: 0

q: Form field: reported Population Membrane Permeable-Phenotype (%) of CCn1c(-c2nc3cc(C(=O)N4CCCC(N)C4)ccc3n2C)cc2ccccc21.Cl (stereo not drawn)
a: 1

q: Can you look up the measured Population Membrane Permeable-Phenotype (%) of CSc1nc(NC2CCCC2)c([N+](=O)[O-])c(NC2CCCC2)n1 for me?
a: 1

###

Test system: U2OS
Test name: Multiplex assay against U2OS
Assay type: toxicity, cell-based
Condition context: human, 12 h, 1 µM, compound concentration 1 uM, replicate 1
Each entry below carries its reported Population Hoechst High Intensity Objects (%).
Field format: number, assumed %, no unit text.

Recorded results for 3 compounds are shown here.
Cc1cc(NC(=O)NCCN2CCC(O)(Cc3ccccc3)CC2)c2ccccc2n1: 1
COc1cc(OC2CCN(C(C)=O)CC2)ccc1C(=O)N1CCC(N2C(=O)OCc3ccccc32)CC1: 0
COc1cc2nc(N3CCN(C(=O)COc4c(OC)cccc4C(C)C)CC3)nc(N)c2cc1OC.Cl.Cl: 3

q: Report Population Hoechst High Intensity Objects (%) for CCn1c(-c2nc3cc(C(=O)N4CCCC(N)C4)ccc3n2C)cc2ccccc21.Cl (stereo not drawn) please.
a: 0

q: Fill blank: measured Population Hoechst High Intensity Objects (%) of the compound COc1c(Nc2ccc(S(C)(=O)=O)nc2C)ncnc1OC1CCN(C(=O)OC(C)C)CC1 is ____.
a: 2

q: Looking for the measured Population Hoechst High Intensity Objects (%) of Cc1c(Cc2ccc3ccccc3n2)c2cc(F)ccc2n1CC(=O)O , can you help?
a: 2

q: # Population Hoechst High Intensity Objects (%) lookup, item CCc1nn2c(C)cc(C)nc2c1Cc1ccc(-c2nnc(C3CCNCC3)o2)cc1
a: 3

q: Which Population Hoechst High Intensity Objects (%) is reported for this compound? Cc1sc2c(c1C)C(c1ccc(Cl)cc1)=N[C@H](CC(=O)OC(C)(C)C)c1nnc(C)n1-2
a: 2

q: Param item = Cc1cc(=O)n(C)c2cc(N3C(=O)CC[C@H](NS(=O)(=O)CC(C)C)[C@H]3c3ccc(Cl)cc3)ccc12 ; retrieve measured Population Hoechst High Intensity Objects (%).
a: 3

q: Quick one: Population Hoechst High Intensity Objects (%) for Cl.Cl.OCCOCCN1CCN(C(c2ccccc2)c2ccc(Cl)cc2)CC1 (stereo not drawn) [HYDROXYZINE HYDROCHLORIDE] ?
a: 0

q: Fill in: Population Hoechst High Intensity Objects (%) of S=C(NCCCc1c[nH]cn1)NCCCN(Cc1ccc(Cl)c(Cl)c1)c1ccc(Br)cn1 is ___
a: 2

###

System: U2OS
Test name: Multiplex assay against U2OS
Assay type: toxicity, cell-based
Condition context: human, 48 h, 10 µM, compound concentration 10 uM, replicate 2
Listing: Population Tubulin-Different-Phenotype (%) of selected compounds
Report only the number, with the unit % understood.

q: What does the data say about its Population Tubulin-Different-Phenotype (%)? Entry: Cl.Cl.OCCOCCN1CCN(C(c2ccccc2)c2ccc(Cl)cc2)CC1 (centres undefined) [HYDROXYZINE HYDROCHLORIDE]
a: 5

q: What value of measured Population Tubulin-Different-Phenotype (%) is listed for N[C@](CC1c2ccccc2Oc2ccccc21)(C(=O)O)[C@H]1C[C@@H]1C(=O)O ?
a: 3

q: Fill in: Population Tubulin-Different-Phenotype (%) of CCc1nn2c(C)cc(C)nc2c1Cc1ccc(-c2nnc(C3CCNCC3)o2)cc1 is ___
a: 18

q: Would you mind telling me what Population Tubulin-Different-Phenotype (%) value was observed for C[C@@H]1CC(=O)Nc2cccc(-c3ccc4c(c3)c(-c3cnn(C)c3)nn4C)c2N1 ?
a: 3

###

System: Fibroblast
Test name: Multiplex assay against human fibroblast
Assay type: toxicity, cell-based
Condition context: 48 h, 1 µM, compound concentration 1 uM, replicate 2
Non-standard residues stand in square brackets, D forms with d. Residues, ends and D or L forms follow the SMILES beside them.
Assign a class from recorded Population Tubulin-Different-Phenotype (%); defined classes: low band (below 50%), middle band (50% to below 60%), high band (60% or more)

CC(C)(O)C(=O)N1CCN(c2ccc(C(F)(F)F)c(C3=C(c4c[nH]c5ccccc45)C(=O)NC3=O)c2)CC1: high band
CN1CCC(C(=O)c2cccc(NC(=O)c3c(F)cc(F)cc3F)n2)CC1: high band
COCCCN1CCC(NC(=O)c2cc(Cl)c(N)c3c2OCC3)CC1 [PRUCALOPRIDE]: middle band
CCCCCCNC(=O)Nc1ccc(S(=O)(=O)Nc2ccc(CCNC[C@H](O)COc3ccc(O)cc3)cc2)cc1 [L-755507]: low band
Cc1sc2c(c1C)C(c1ccc(Cl)cc1)=N[C@H](CC(=O)OC(C)(C)C)c1nnc(C)n1-2: high band
O=c1ccc2ccc(OCCCCN3CCN(c4cccc5sccc45)CC3)cc2[nH]1 [BREXPIPRAZOLE]: high band
O=C(Nc1cc(-c2ccccc2)nn1-c1ccccc1F)c1ccc([N+](=O)[O-])cc1: middle band
CN1C[C@H](C(=O)N[C@]2(C)O[C@@]3(O)[C@@H]4CCCN4C(=O)[C@H](Cc4ccccc4)N3C2=O)C[C@@H]2c3cccc4[nH]cc(c34)C[C@H]21.CS(=O)(=O)O [DIHYDROERGOTAMINE MESYLATE]: low band
COc1cc2nc(N3CCN(C(=O)c4ccco4)CC3)nc(N)c2cc1OC.Cl [PRAZOSIN HYDROCHLORIDE]: middle band
CCCCC[C@H](O)/C=C/[C@H]1[C@H](O)CC(=O)[C@@H]1CCCCCCC(=O)O [ALPROSTADIL]: low band

Could you now consider this next molecule?
q: Could you place CC(C)C[C@@H]1NC(=O)[C@@H](C(C)C)NC(=O)[C@@H]2CCCN2C(=O)[C@@H](CC(=O)O)NC(=O)[C@@H](Cc2c[nH]c3ccccc23)NC1=O [BQ-123] (cyclo(L[dW][dD]P[dV])) in its proper category? Many thanks.
a: low band

###

Reported Population Mitotic Cells (%) values for a set of molecules
Test system: Fibroblast
Test name: Multiplex assay against human fibroblast
Format: toxicity, cell-based
Condition context: 12 h, 1 µM, compound concentration 1 uM, replicate 1
Unit % implied. Number only.

Known results for molecules:
Cc1cc(NC(=O)NCCN2CCC(O)(Cc3ccccc3)CC2)c2ccccc2n1 [PALOSURAN]: 62
CN(C)C(=O)Cn1cc(-c2ccc(-c3nnc4ccccn34)cc2)cn1: 42
COc1cc(Nc2ncc3c(n2)-c2ccc(Cl)cc2C(c2c(F)cccc2OC)=NC3)ccc1C(=O)O [ALISERTIB]: 60
COc1cc(OC2CCN(C(C)=O)CC2)ccc1C(=O)N1CCC(N2C(=O)OCc3ccccc32)CC1: 58
CN1CCN(c2ccc(Nc3c4ccccc4nc4ccccc34)cc2)CC1.Cl.Cl.O: 52

q: Which Population Mitotic Cells (%) reading was recorded for the molecule O=C(O)CCC/C=C\CC1C(O)CC(O)C1/C=C/C(O)COc1cccc(Cl)c1 (stereo not drawn) [CLOPROSTENOL] ?
a: 58

q: For the molecule shown here, Cc1sc2c(c1C)C(c1ccc(Cl)cc1)=N[C@H](CC(=O)OC(C)(C)C)c1nnc(C)n1-2 , give the reported Population Mitotic Cells (%).
a: 56

q: Looking for the measured Population Mitotic Cells (%) of COc1cc(C(=O)N2CC[C@@H](O)[C@@H](N)C2)cc2nc(-c3cc4ccccc4n3CC3CC3)n(C)c12.Cl , can you help?
a: 78
